Reference source for all entries: patent US20240158438A1

Molecular target: CYP 3A4 (Homo sapiens (Human))
Sequence (P08684 whole entry): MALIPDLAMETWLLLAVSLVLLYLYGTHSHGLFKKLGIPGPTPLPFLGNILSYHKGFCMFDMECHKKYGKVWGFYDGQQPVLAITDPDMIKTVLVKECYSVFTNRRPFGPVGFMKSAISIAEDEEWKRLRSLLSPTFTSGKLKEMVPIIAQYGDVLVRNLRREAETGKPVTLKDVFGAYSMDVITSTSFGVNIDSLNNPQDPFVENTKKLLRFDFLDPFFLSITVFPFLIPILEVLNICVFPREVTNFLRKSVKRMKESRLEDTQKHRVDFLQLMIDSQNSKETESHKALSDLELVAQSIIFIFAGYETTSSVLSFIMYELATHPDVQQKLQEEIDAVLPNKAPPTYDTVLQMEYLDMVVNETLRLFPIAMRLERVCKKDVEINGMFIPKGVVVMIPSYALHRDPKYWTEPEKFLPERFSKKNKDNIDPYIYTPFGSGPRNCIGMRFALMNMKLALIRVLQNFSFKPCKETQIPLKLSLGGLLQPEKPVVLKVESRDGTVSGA
Type: in vitro ADME
Settings: microsomes, 10 min
pIC50: −log10 of the molar value. Starred links: 1 amine or outer side, 2 acyl side, 3 side chain; linkers in the order of their positions; H or OH if unused. Non-standard residues stand in square brackets, D forms with d. Residues, ends and D or L forms follow the SMILES beside them. *: point of attachment. Azetidine3carboxylic = O=C(C1CN([*:1])C1)[*:2]; Pyrrolidine3carbonyl(3S) = O=C([C@H]1CCNC1)*; dBta = N[C@H](Cc1csc2ccccc12)C(=O)O; dTle = CC(C)(C)[C@@H](N)C(=O)O; Ac4c(3-oxa) = NC1(C(=O)O)COC1; dAbu = CC[C@@H](N)C(=O)O; Api = NC1(C(=O)O)CCNCC1; Abu = CC[C@H](N)C(=O)O
Observation Type: pIC50

Compound	Assayed System	pIC50
CC[C@@H](N)C(=O)N[C@H](Cc1csc2ccccc12)C(=O)N[C@H](Cc1c[nH]c2ccccc12)C(=O)N[C@@H](Cc1ccccc1)C(=O)NC1(C(N)=O)CCNCC1 [Compound 2] (H-[dAbu][dBta][dW]F[Api]-NH2)	CYP 3A4 (Homo sapiens (Human))	4.70
NC(=O)C1(NC(=O)[C@H](Cc2ccccc2)NC(=O)[C@@H](Cc2c[nH]c3ccccc23)NC(=O)[C@@H](Cc2csc3ccccc23)NC(=O)C2CNC2)CCNCC1 [Compound 23] (Azetidine3carboxylic-[dBta][dW]F[Api]-NH2)	CYP 3A4 (Homo sapiens (Human))	< 4.30
C[C@@H](N)C(=O)N[C@H](Cc1csc2ccccc12)C(=O)N[C@H](Cc1c[nH]c2ccccc12)C(=O)N[C@@H](Cc1ccccc1)C(=O)NC1(C(N)=O)CCNCC1 [Compound 12] (H-[dA][dBta][dW]F[Api]-NH2)	CYP 3A4 (Homo sapiens (Human))	< 4.30
CC[C@H](N)C(=O)N[C@H](Cc1csc2ccccc12)C(=O)N[C@H](Cc1c[nH]c2ccccc12)C(=O)N[C@@H](Cc1ccccc1)C(=O)NC1(C(N)=O)CCNCC1 [Compound 3] (H-[Abu][dBta][dW]F[Api]-NH2)	CYP 3A4 (Homo sapiens (Human))	< 4.30
NCCCC[C@@H](NC(=O)[C@H](Cc1ccccc1)NC(=O)[C@@H](Cc1c[nH]c2ccccc12)NC(=O)[C@@H](Cc1csc2ccccc12)NC(=O)[C@H]1CCNC1)C(N)=O [Compound 56] ({Pyrrolidine3carbonyl(3S)}-[dBta][dW]F[dK]-NH2)	CYP 3A4 (Homo sapiens (Human))	< 4.30
NC(=O)[C@H](Cc1ccccc1)NC(=O)[C@@H](Cc1c[nH]c2ccccc12)NC(=O)[C@@H](Cc1csc2ccccc12)NC(=O)[C@H]1CCNC1	CYP 3A4 (Homo sapiens (Human))	< 4.30

Record CC(C)(C)[C@@H](N)C(=O)N[C@H](Cc1csc2ccccc12)C(=O)N[C@H](Cc1c[nH]c2ccccc12)C(=O)N[C@@H](Cc1ccccc1)C(=O)N[C@H](CCCCN)C(N)=O [Compound 47] (H-[dTle][dBta][dW]F[dK]-NH2) has CYP 3A4 (Homo sapiens (Human)) pIC50 equal to < 4.30

Param item: CC[C@H](N)C(=O)N[C@H](Cc1csc2ccccc12)C(=O)N[C@H](Cc1c[nH]c2ccccc12)C(=O)N[C@@H](Cc1ccccc1)C(=O)N[C@H](CCCCN)C(N)=O [Compound 33] (H-[Abu][dBta][dW]F[dK]-NH2) ; param system: CYP 3A4 (Homo sapiens (Human)); output pIC50: < 4.30

Test item NCCCC[C@@H](NC(=O)[C@H](Cc1ccccc1)NC(=O)[C@@H](Cc1c[nH]c2ccccc12)NC(=O)[C@@H](Cc1csc2ccccc12)NC(=O)C1(N)COC1)C(N)=O [Compound 54] (H-[Ac4c(3-oxa)][dBta][dW]F[dK]-NH2) ; CYP 3A4 (Homo sapiens (Human)); reported pIC50 was < 4.30
